target: Trypanothione reductase (Trypanosoma cruzi)
Sequence (P28593 whole entry): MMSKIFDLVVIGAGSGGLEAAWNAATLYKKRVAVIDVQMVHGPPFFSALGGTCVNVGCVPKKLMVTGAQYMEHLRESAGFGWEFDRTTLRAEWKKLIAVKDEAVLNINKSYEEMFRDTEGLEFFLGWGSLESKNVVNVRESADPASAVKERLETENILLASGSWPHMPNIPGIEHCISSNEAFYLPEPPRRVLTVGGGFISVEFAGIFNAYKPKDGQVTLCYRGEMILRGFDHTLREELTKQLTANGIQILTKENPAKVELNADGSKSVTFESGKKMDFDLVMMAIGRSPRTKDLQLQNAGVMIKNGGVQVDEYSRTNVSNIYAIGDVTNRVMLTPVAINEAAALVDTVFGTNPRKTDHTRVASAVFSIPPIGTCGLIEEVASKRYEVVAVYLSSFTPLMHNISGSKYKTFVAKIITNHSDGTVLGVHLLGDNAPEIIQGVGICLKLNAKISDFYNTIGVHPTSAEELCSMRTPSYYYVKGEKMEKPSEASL
So I've got a bunch of compounds here, and I need their Ki values.
Give bare numbers, in nM.

Would you please look over these solved cases?
C[N+](C)(CCCN1c2ccccc2Sc2ccc(Cl)cc21)Cc1ccc(Br)cc1; 1500
C[N+](C)(CCCN1c2ccccc2Sc2ccc(Cl)cc21)Cc1c(F)c(F)c(F)c(F)c1F; 1670
Cc1cc(C(=O)C[N+](C)(C)CCCN2c3ccccc3Sc3ccc(Cl)cc32)ccc1Cl; 1430
C[N+](C)(CCCN1c2ccccc2Sc2ccc(Cl)cc21)Cc1cccc(Cl)c1; 2400
C[N+](C)(CCCN1c2ccccc2Sc2ccc(Cl)cc21)Cc1ccc([N+](=O)[O-])cc1.[Cl-]; 2980

Your task in this section: give Ki for each listed record.
1. Cc1ccc(C[N+](C)(C)CCCN2c3ccccc3Sc3ccc(Cl)cc32)cc1C
2. C[N+](C)(CCCN1c2ccccc2Sc2ccc(Cl)cc21)CC(=O)C12CC3CC(CC(C3)C1)C2
3. C[N+](C)(CCCN1c2ccccc2Sc2ccc(Cl)cc21)Cc1ccc2ccccc2c1
4. C[N+](C)(CCCN1c2ccccc2Sc2ccc(Cl)cc21)Cc1ccc(Cl)c(Cl)c1

Marked response:
470
1230
1550
120
